- system: ACVR2A on primary human myotubes (human, UniProt P27037 20-513)
- Sequence (P27037 20-513): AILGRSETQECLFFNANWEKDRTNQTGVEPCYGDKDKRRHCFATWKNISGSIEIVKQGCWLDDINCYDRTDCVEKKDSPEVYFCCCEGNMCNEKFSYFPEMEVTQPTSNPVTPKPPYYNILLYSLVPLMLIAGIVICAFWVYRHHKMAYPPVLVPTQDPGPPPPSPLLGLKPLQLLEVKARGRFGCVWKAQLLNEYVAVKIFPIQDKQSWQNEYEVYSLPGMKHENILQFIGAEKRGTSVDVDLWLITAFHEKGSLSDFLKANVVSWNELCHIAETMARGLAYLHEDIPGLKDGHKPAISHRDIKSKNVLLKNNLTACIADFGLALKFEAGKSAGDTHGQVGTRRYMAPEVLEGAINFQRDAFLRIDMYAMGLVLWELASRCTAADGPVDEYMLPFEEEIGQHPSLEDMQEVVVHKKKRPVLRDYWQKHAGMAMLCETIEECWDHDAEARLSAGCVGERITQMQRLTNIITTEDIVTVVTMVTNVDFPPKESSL
- assay.notes: cell-based or functional assay
recorded.endpoint: Phospho-SMAD3 Human Skeletal Muscle GDF8
Please respond with just the number, no unit label.

Some binders with known Phospho-SMAD3 Human Skeletal Muscle GDF8 results, for comparison:
binder	Phospho-SMAD3 Human Skeletal Muscle GDF8
368_D10 (antibody, V domains shown) VH: EVQLLESGGGLVQPGGSLRLSCAASGFTFDSYGMNWVRQAPGKGLEWVAGINYNSGYTSYADSVKGRFTISRDNSKNTLYLQMNSLRAEDTAVYYCARSATWHDTALDYWGQGTLVTVSS VL: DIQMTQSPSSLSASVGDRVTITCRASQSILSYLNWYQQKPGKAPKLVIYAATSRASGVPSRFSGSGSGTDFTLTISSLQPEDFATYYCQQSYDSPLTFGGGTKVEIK	0.0601
369_F01 (antibody, V domains shown) VH: EVQLLESGGGLVQPGGSLRLSCAASGFTFSSYGMNWVRQAPGKGLEWVSGINYNGGYKSYADSVKGRFTISRDNSKNTLYLQMNSLRAEDTAVYYCARSANWHDTALDYWGQGTLVTVSS VL: DIQMTQSPSSLSASVGDRVTITCRASQSILTYVNWYQQKPGKAPKLLIYAATSRASGVPSRFSGSGSGTDFTLTISSLQPEDFATYYCQQSYELPLTFGGGTKVEIK	0.0317

Request: Form field: reported Phospho-SMAD3 Human Skeletal Muscle GDF8 of 376_C06 (antibody, V domains shown) VH: EVQLLESGGGLVQPGGSLRLSCAASGFTFSSYGMNWVRQAPGKGLEWVAGINYNGGYTSYADSVKGRFTISRDNSKNTLYLQMNSLRAEDTAVYYCARSATWHDTALDYWGQGTLVTVSS VL: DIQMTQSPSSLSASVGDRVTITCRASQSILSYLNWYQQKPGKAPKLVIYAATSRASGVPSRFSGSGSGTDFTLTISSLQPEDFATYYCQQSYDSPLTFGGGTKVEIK
Result: 0.0107

Values from patent US20210380703A1
